# measured on: T1, CD86 (Sino Biological, Cat #10699-H08H) (UniProt P42081 24-245)
# T1 sequence (looked up): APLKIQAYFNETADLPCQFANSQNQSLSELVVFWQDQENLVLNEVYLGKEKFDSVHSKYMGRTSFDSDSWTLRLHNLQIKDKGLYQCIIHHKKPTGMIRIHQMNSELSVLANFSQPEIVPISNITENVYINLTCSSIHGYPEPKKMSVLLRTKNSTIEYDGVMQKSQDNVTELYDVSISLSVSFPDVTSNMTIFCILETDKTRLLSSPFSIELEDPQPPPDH
# assay: ELISA

# binder, binding result
rows = [
    ("27A2 (antibody, human IgG1, V domains shown) VH: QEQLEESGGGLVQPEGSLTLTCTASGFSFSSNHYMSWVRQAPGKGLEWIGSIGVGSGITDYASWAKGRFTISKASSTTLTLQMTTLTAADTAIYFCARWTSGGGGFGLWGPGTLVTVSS VL: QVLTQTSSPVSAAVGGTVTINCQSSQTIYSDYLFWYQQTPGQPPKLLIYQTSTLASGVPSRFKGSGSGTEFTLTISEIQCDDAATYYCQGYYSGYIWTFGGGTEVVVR", "no binding"),
    ("33H7 (antibody, human IgG1, V domains shown) VH: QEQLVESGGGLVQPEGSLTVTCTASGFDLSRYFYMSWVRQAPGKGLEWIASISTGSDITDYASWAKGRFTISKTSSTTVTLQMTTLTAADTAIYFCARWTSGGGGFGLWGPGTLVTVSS VL: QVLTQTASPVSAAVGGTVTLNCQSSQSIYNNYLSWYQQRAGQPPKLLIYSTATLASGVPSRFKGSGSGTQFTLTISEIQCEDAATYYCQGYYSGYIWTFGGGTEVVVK", "no binding"),
    ("56E5 (antibody, human IgG1, V domains shown) VH: QEQLEESGGGLVQPEGSLTLTCTASGFSFSGDYYMSWVRQAPGKGLEWIASIYTGSLNTYYATWAKGRFTISLTSSTTVTLQMTSLTAADTATYFCARRHKNADYGHFDLWGPGTLVTVSS VL: YDMTQTPGSVEVAVGGTVTIKCQASQSINDRLAWYQQTPGQPPKLLIYGASTLASGVPSRFKGSGSGTEFTLTISDLECADAATYYCQQGWTVSSLDNAFGGGTEVVAK", "no binding"),
]
